These entries and their values trace back to ChEMBL document CHEMBL1649292.

Please provide measured Survival for the entries that follow.
- System: Trypanosoma evansi
- test.description: Antimicrobial activity against Trypanosoma evansi STIB 806K infected in NMRI mouse assessed as host survival days at 0.5 mg/kg, ip administered 3 to 6 days after infection for 4 consecutive days
- Format: functional
- measurement.conditions: route intraperitoneal
Numbers only, in days.

{"chem.smiles": "N=C(N)c1ccc(-c2cccc(-c3ccc(C(=N)N)cc3)n2)cc1", "target.entity": "Trypanosoma evansi", "value": 16}
{"chem.smiles": "N=C(N)c1ccc(-c2ccc(-c3ccc4ccc(C(=N)N)cc4c3)o2)cc1", "target.entity": "Trypanosoma evansi", "value": 15}
{"chem.smiles": "N=C(N)c1ccc(-c2ccc(-c3ccc(C(=N)N)cc3F)o2)c(F)c1", "target.entity": "Trypanosoma evansi", "value": 43}
{"chem.smiles": "Cc1cc(C(=N)N)ccc1-c1cc2cc(C(=N)N)ccc2[nH]1", "target.entity": "Trypanosoma evansi", "value": 60}

# next molecule below
Please tell me: Survival of Cc1cc(C2=NCCN2)ccc1-c1cc2cc(C3=NCCN3)ccc2[nH]1 , system Trypanosoma evansi? 7
